# Assay Info: protein stability index of a GFP-peptide fusion (yeast GPS) (PSI 1-4); higher = more stable; sorted into four equal gates, so the index is relative within each strain
# Experimental Context: san1∆
Readout Type: protein stability index
Lab note: write the figure by itself, no unit.

Consider the worked cases shown below.
{"Sequence Input": "SMINNSNQAVGQTWNFP [SRB8]", "protein stability index": 3.15}
{"Sequence Input": "NGLIISWSNGKITSPIR [RRP42]", "protein stability index": 3.2}

Would you kindly look at the next entry?
GET /values?readout=protein stability index&item= NPNTNTNSNNTPLQSQL [PGD1]
2.88

###

# Assay Info: protein stability index of a GFP-peptide fusion (yeast GPS) (PSI 1-4); higher = more stable; sorted into four equal gates, so the index is relative within each strain
# Experimental Context: doa10∆
Outcome label depends on protein stability index relative to 3: at/above gives T, below gives F.

Is reported protein stability index greater than or equal to 3 here: ISNNLALVFAALEHLKN [SRP68]
F

Is reported protein stability index greater than or equal to 3 here: EARINELLSSLEGKGSL [RPP2B]
F

Is reported protein stability index greater than or equal to 3 here: EKLLQQDREITNWARTT [MED8]
F

Is reported protein stability index greater than or equal to 3 here: IKLSLKDKTKNISAEII [SMC4]
F

Is reported protein stability index greater than or equal to 3 here: ANVDQISFLEPINLKFL [YMR129W/POM152]
F

Is reported protein stability index greater than or equal to 3 here: LCHPKKEKYGLAVSTIL [SMC1]
F

Is reported protein stability index greater than or equal to 3 here: TKPGVYYVPYSKLMPVL [RPC82]
F

Is reported protein stability index greater than or equal to 3 here: ATVPSAPYRKQIISNAH [YAR002W/NUP60]
F

Is reported protein stability index greater than or equal to 3 here: NPSEFTPNMVNSEISNL [SSN2]
F

Is reported protein stability index greater than or equal to 3 here: WTSTQRHHWQYTKASLA [SSN8]
F

###

# Assay Info: protein stability index of a GFP-peptide fusion (yeast GPS) (PSI 1-4); higher = more stable; sorted into four equal gates, so the index is relative within each strain
# Experimental Context: ubr1∆
Readout Type: protein stability index
Lab note: write the figure by itself, no unit.

Consider the worked cases shown below.
{"Sequence Input": "MEKKKSSSLSLESFMKS [SNM1]", "protein stability index": 2.04}
{"Sequence Input": "CLENARSQISEKDAKIN [SIR4]", "protein stability index": 2.98}

Would you kindly look at the next entry?
GET /values?readout=protein stability index&item= MFRYKTNLYKLKEERAI [PUP3]
2.1

###

# Assay Info: protein stability index of a GFP-peptide fusion (yeast GPS) (PSI 1-4); higher = more stable; sorted into four equal gates, so the index is relative within each strain
# Experimental Context: pdr5∆
Readout Type: protein stability index

Consider the worked cases shown below.
{"Sequence Input": "FGKTTANLPANSSTSPA [YLR335W/NUP2]", "Reported": 3.14}
{"Sequence Input": "EVRAISVAKIRFPETMD [RPO21]", "Reported": 2.87}
{"Sequence Input": "LLTNDESAFENLMGNRN [SNF12]", "Reported": 2.7}
{"Sequence Input": "DEEETAEGQTNSISDFL [RPN1]", "Reported": 3.13}
{"Sequence Input": "QQDQPEQSEQPEQHQDK [RPN10]", "Reported": 3.14}

GET /values?readout=protein stability index&item= TLELESFLEGSKALNSI [RGR1]
2.16

GET /values?readout=protein stability index&item= LQMRLKESEISHNENKM [YIL149C/MLP2]
2.96

GET /values?readout=protein stability index&item= CVVLGCERRSTLKLQDT [PRE6]
1.66

GET /values?readout=protein stability index&item= QFEKSRKVSGPRALQPS [RET1]
3.19

GET /values?readout=protein stability index&item= NNSTSNANTVFSERAAM [SWI1]
3.27

GET /values?readout=protein stability index&item= LVHGIFGAKMSRTLILS [SIN4]
1.41

GET /values?readout=protein stability index&item= NNMNVNMNLNPQMFLNQ [GAL11]
2.56

GET /values?readout=protein stability index&item= RKFERARGRRRSKGFKV [RPL18A]
3.24

GET /values?readout=protein stability index&item= LDALVDCENFFNYVQEC [YJL039C/NUP192]
3.43

###

# Assay Info: protein stability index of a GFP-peptide fusion (yeast GPS) (PSI 1-4); higher = more stable; sorted into four equal gates, so the index is relative within each strain
# Experimental Context: doa10∆
Outcome label depends on protein stability index relative to 3: at/above gives rule met, below gives rule not met.

Solved entries:
{"Sequence Input": "EEKEEEAAEESDDDMGF [RPP1B]", "Group": "rule met"}
{"Sequence Input": "LDVTKEAQANLLTAKHG [RPO21]", "Group": "rule met"}
{"Sequence Input": "IIEKITDQILQLLKEDS [RRP45]", "Group": "rule not met"}

Is reported protein stability index greater than or equal to 3 here: ESSHEQEEFVQFLQLDN [ECM29]
rule met

###

# Assay Info: protein stability index of a GFP-peptide fusion (yeast GPS) (PSI 1-4); higher = more stable; sorted into four equal gates, so the index is relative within each strain
# Experimental Context: doa10∆
Readout Type: protein stability index
Lab note: write the figure by itself, no unit.

{"Sequence Input": "IVNGQTFSYVDSSLQPE [YMR129W/POM152]", "protein stability index": 2.47}
{"Sequence Input": "EQTVSAVTEATSTNGDS [RGR1]", "protein stability index": 3.45}
{"Sequence Input": "NKYPELLGKDNEDDALI [AAR2]", "protein stability index": 3.33}
{"Sequence Input": "ALCKNRKCQFRTPDSIS [POP1]", "protein stability index": 2.31}
{"Sequence Input": "REILCYSKDAKEIYYTP [FAS2]", "protein stability index": 2.68}

GET /values?readout=protein stability index&item= AALIASKVYYNLGEYES [RPN2]
1.88

GET /values?readout=protein stability index&item= QRLIFAGKQLEDGRTLS [RPS31]
2.8

###

# Assay Info: protein stability index of a GFP-peptide fusion (yeast GPS) (PSI 1-4); higher = more stable; sorted into four equal gates, so the index is relative within each strain
# Experimental Context: pdr5∆
Outcome label depends on protein stability index relative to 3: at/above gives true (1), below gives false (0).

Solved entries:
{"Sequence Input": "YGYFSVGKRVPIVEDRR [SIR4]", "Group": "false (0)"}
{"Sequence Input": "ENSGKEMDEKSYEKNED [LIN1]", "Group": "true (1)"}
{"Sequence Input": "AFHTAVLRLNAIPLLKV [NUT1]", "Group": "false (0)"}
{"Sequence Input": "AGIKTRKFVFNPPKPRK [CYT1]", "Group": "true (1)"}
{"Sequence Input": "CVKNHGQSSSIQSSLMT [YCS4]", "Group": "false (0)"}
{"Sequence Input": "SYVEPVLVASAKGLQTV [RPL31A]", "Group": "false (0)"}

Is reported protein stability index greater than or equal to 3 here: LEQLAQHTTESDNISRK [RPB2]
true (1)

###

# Assay Info: protein stability index of a GFP-peptide fusion (yeast GPS) (PSI 1-4); higher = more stable; sorted into four equal gates, so the index is relative within each strain
# Experimental Context: san1∆
Outcome label depends on protein stability index relative to 3: at/above gives Condition met, below gives Condition not met.

Solved entries:
{"Sequence Input": "RPNRRGPRNTEEKGWVP [RPS2]", "Group": "Condition met"}
{"Sequence Input": "DGWVKLTYKSELSKSRA [YMR153W/NUP53]", "Group": "Condition not met"}

Is reported protein stability index greater than or equal to 3 here: TMEVKSFPILDQCVGQV [YMR129W/POM152]
Condition not met

Is reported protein stability index greater than or equal to 3 here: AEFKKENLADLDYQIGN [LIN1]
Condition met

Is reported protein stability index greater than or equal to 3 here: REDMPFTAEGIVPDLII [RPB2]
Condition met

Is reported protein stability index greater than or equal to 3 here: LEDPYKYHYKEEWLNTK [CSN9]
Condition not met

###

# Assay Info: protein stability index of a GFP-peptide fusion (yeast GPS) (PSI 1-4); higher = more stable; sorted into four equal gates, so the index is relative within each strain
# Experimental Context: ubr1∆
In this section, each of the sequences is paired with its reported protein stability index.
Lab note: write the figure by itself, no unit.

Consider the worked cases shown below.
{"Sequence Input": "IPNIPPNINTWQQVTAL [GAL11]", "protein stability index": 2.54}
{"Sequence Input": "TQHEEEEEQDTGESEES [IRR1]", "protein stability index": 3.39}
{"Sequence Input": "VSKKVDVRRLKKNVWRS [BRN1]", "protein stability index": 3.13}
{"Sequence Input": "TLQDIGFYQIKKIVDSK [YMR129W/POM152]", "protein stability index": 2.97}
{"Sequence Input": "GISKKTRIAGVVYHPSN [RPS8A]", "protein stability index": 2.4}
{"Sequence Input": "LDNMTYSSVAGTVSRVN [RRP4]", "protein stability index": 2.21}
{"Sequence Input": "LIYGISDEERDDEDDEH [AAR2]", "protein stability index": 3.06}
{"Sequence Input": "SKKTSPKATSSAGAVFK [YOR098C/NUP1]", "protein stability index": 2.61}
{"Sequence Input": "IRNVLVTVDQYVNVAIS [SSN2]", "protein stability index": 1.39}
{"Sequence Input": "NVFNDTPRGNHWMGSSV [YMR129W/POM152]", "protein stability index": 3.12}

GET /values?readout=protein stability index&item= PSTNKKLSISNAASQQP [GAL11]
2.74

GET /values?readout=protein stability index&item= QYEHLIKGIREYEEWQK [YDL116W/NUP84]
2.62

GET /values?readout=protein stability index&item= FKSTMLQVSEKDLFELE [ARP7]
1.4

GET /values?readout=protein stability index&item= ESEKLVTPEDVMTISSL [RPC82]
3.26

GET /values?readout=protein stability index&item= RKCETQKQWDDIAFVLN [YCS4]
3.13

GET /values?readout=protein stability index&item= ISFAAFILADAGLEITS [RPP1B]
1.9

GET /values?readout=protein stability index&item= ADESKMAKLNECPLDPG [RET1]
2.08

GET /values?readout=protein stability index&item= DKYHPGYFGKVGMRYFH [RPL28]
2.96

GET /values?readout=protein stability index&item= TKFQTTDRESYPRLQDP [YCS4]
3.05

GET /values?readout=protein stability index&item= NSWFDVTWRTFTGDFLR [FAS1]
2.61

GET /values?readout=protein stability index&item= SNTNDNISIITLELESF [RGR1]
2.32
